The measured values listed here are drawn from PubChem BioAssay AID268.

System: CD2F1 mice, P1798 lymphosarcoma sc, tumor weight T/C
Assay: NCI In Vivo Anticancer Drug Screen. Data for tumor model P1798 Lymphosarcoma (subcutaneous) in CD2F1 (CDF1) mice
Conditions: endpoint: mean tumor weight; dose: 0.25 mg/kg/injection; schedule: Q01DX010 (ip); vehicle: saline; higher = larger tumour
Experimental: The antitumor activity of compounds was measured in mice bearing transplantable tumors. Survival or tumor size were measured and the results are expressed as the measurement made in the treated group (T) divided by the measurement made in the vehicle treated control group (C). The tumor model used in this assay is P1798 Lymphosarcoma (subcutaneous) in CD2F1 (CDF1) mice
Reported Property: T/C

Measured T/C of CC(=O)NC1=C(N2CC2)C(=O)C(NC(C)=O)=C(N2CC2)C1=O : 86 % of control

Consider CC(=O)OC(C)(C)/C=C/C(=O)[C@](C)(O)[C@H]1[C@H](O)C[C@@]2(C)[C@@H]3CC=C4[C@@H](CC[C@H](O)C4(C)C)[C@]3(CO)C(=O)C[C@]12C . Its measured T/C is 89 % of control

Kindly note the recorded T/C for CC(=O)OC(C)(C)/C=C/C(=O)[C@](C)(O)[C@H]1[C@H](O)C[C@@]2(C)[C@@H]3CC=C4[C@@H](C[C@H](O)C(=O)C4(C)C)[C@]3(CO)C(=O)C[C@]12C , which is 110 % of control

Noted for CS(=O)(=O)OCCN(CCOS(C)(=O)=O)c1ccc(N=O)cc1 : its T/C reads 92 % of control

Query NC(Cc1c[nH]c2ccc(N(CCCl)CCCl)cc12)C(=O)O (centres undefined) yields T/C of 106 % of control

Sample CC(=O)OC(C)(C)/C=C/C(=O)[C@](C)(O)[C@H]1[C@H](O)C[C@@]2(C)[C@@H]3CC=C4[C@@H](C[C@H](O)C(=O)C4(C)C)[C@]3(C)C(=O)C[C@]12C ; T/C observed: 70 % of control

Notebook: CSCS(=O)C[C@H](CO)NC(=O)/C=C/c1c(C)[nH]c(=O)[nH]c1=O (some centres undefined) , T/C read as 99 % of control

Recorded T/C (compound CO[C@@]12[C@H](COC(N)=O)C3=C(C(=O)C(C)=C(N)C3=O)N1C[C@@H]1N[C@@H]12 ): 85 % of control

Looking up C[C@]12CC[C@H](OC3OC(CO)C(O)C(O)C3O)C[C@H]1CC[C@@H]1[C@@H]2CC[C@]2(C)[C@@H](C3=CCOC3=O)CC[C@]12O (some centres undefined) , I found its T/C recorded as 96 % of control

----------
System: CD2F1 mice, P1798 lymphosarcoma sc, tumor weight T/C
Assay: NCI In Vivo Anticancer Drug Screen. Data for tumor model P1798 Lymphosarcoma (subcutaneous) in CD2F1 (CDF1) mice
Settings: endpoint: mean tumor weight; dose: 0.5 mg/kg/injection; schedule: Q01DX010 (ip); vehicle: saline; higher = larger tumour
Field: T/C. Provide a value for each of the compounds that follow.

// recorded T/C for Nc1nc(F)nc2c1ncn2C1OC(CO)C(O)C1O (stereo unspecified) : 76 % of control

The reported T/C of the compound NC(Cc1c[nH]c2ccc(N(CCCl)CCCl)cc12)C(=O)O (stereo unspecified) was 97 % of control

// T/C lookup, compound = N#Cc1cn(C2OC(CO)C(O)C2O)c2ncnc(N)c12 (stereo unspecified) , result: 72 % of control

Quick note, T/C for CC(=O)NC1=C(N2CC2)C(=O)C(NC(C)=O)=C(N2CC2)C1=O landed at 45 % of control

GET /value?item= CO[C@@]12[C@H](COC(N)=O)C3=C(C(=O)C(C)=C(N)C3=O)N1C[C@@H]1N[C@@H]12 &field=T/C returns 61 % of control

Short answer for CSCS(=O)C[C@H](CO)NC(=O)/C=C/c1c(C)[nH]c(=O)[nH]c1=O (stereo partly specified) : T/C was 15 % of control

----------
Test system: CD2F1 mice, P1798 lymphosarcoma sc, tumor weight T/C
Test: NCI In Vivo Anticancer Drug Screen. Data for tumor model P1798 Lymphosarcoma (subcutaneous) in CD2F1 (CDF1) mice
Conditions: endpoint: mean tumor weight; dose: 400.0 mg/kg/injection; schedule: Q01DX010 (sc); vehicle: steriod suspending solution; higher = larger tumour
Record form. Attribute: T/C. Fill in for each entry.

T/C measured on C[C@]12CC[C@@H]3c4ccccc4CC[C@H]3[C@@H]1CC[C@@H]2O = 33 % of control

Reported T/C ( CC(=O)[C@H]1CC[C@H]2[C@@H]3CCC4=CC(=O)[C@H](C)C[C@]4(C)[C@@]3(F)[C@@H](O)C[C@]12C ) = 5 % of control

The recorded T/C for entry CC(=O)[C@H]1CC[C@H]2[C@@H]3C[C@H](C)C4=CC(=O)CC[C@]4(C)[C@@]3(F)[C@@H](O)C[C@]12C equals 2 % of control

Value of T/C reported for the molecule CC1CCC2C(C)C3C(CC4C5CC=C6CC(OC7OC(CO)C(O)C(OC8OC(CO)C(O)C(O)C8O)C7OC7OC(C)C(O)C(O)C7O)CCC6(C)C5CCC43C)N2C1 (centres undefined) is 30 % of control

----------
Tested on: CD2F1 mice, P1798 lymphosarcoma sc, tumor weight T/C
Test: NCI In Vivo Anticancer Drug Screen. Data for tumor model P1798 Lymphosarcoma (subcutaneous) in CD2F1 (CDF1) mice
Details: endpoint: mean tumor weight; dose: 250.0 mg/kg/injection; schedule: Q01DX010 (ip); vehicle: saline; higher = larger tumour
Reported Property: T/C

Measured T/C, CCOC(N)=O : 64 % of control

So for CC(=O)Nc1ccc(/C=N/Nc2ccc([N+](=O)[O-])cn2)cc1 , the logged T/C turned out to be 16 % of control

# T/C (compound: Cc1cn(C2OC(CO)C(O)C2O)c(=O)[nH]c1=O (stereo not given) ) is 72 % of control

Measured T/C of Nc1c(Br)cc2c(c1Br)Cc1cc([N+](=O)[O-])ccc1-2 : 62 % of control

T/C in this record for COc1ccc2c(c1OC)C(=O)O[C@@H]2[C@H]1c2c(cc3c(c2OC)OCO3)CCN1C : 78 % of control

----------
Tested on: CD2F1 mice, P1798 lymphosarcoma sc, tumor weight T/C
Test: NCI In Vivo Anticancer Drug Screen. Data for tumor model P1798 Lymphosarcoma (subcutaneous) in CD2F1 (CDF1) mice
Conditions: endpoint: mean tumor weight; dose: 40.0 mg/kg/injection; schedule: Q01DX010 (ip); vehicle: saline; higher = larger tumour
Reported Property: T/C

Consider CC(=O)c1ccccc1C . Its measured T/C is 42 % of control

For reference, reported T/C for CN(N=O)C(=O)NC(C=O)C(O)C(O)C(O)CO (stereo not given) stands at 97 % of control

Briefly, T/C measured for COc1cc(-c2ccc(Nc3ccccc3C(=O)O)c(OC)c2)ccc1N : 52 % of control

Consider O=C1NC2C(NC(=O)N2Cl)N1Cl (stereo not given) . Its measured T/C is 90 % of control

The compound listed as NC(N)=NCCCC(N)C(=O)NCCCCCCNCCCCCCNC(=O)C(N)CCCN=C(N)N (stereo not given) has a reported T/C of 116 % of control

----------
Tested on: CD2F1 mice, P1798 lymphosarcoma sc, tumor weight T/C
Assay: NCI In Vivo Anticancer Drug Screen. Data for tumor model P1798 Lymphosarcoma (subcutaneous) in CD2F1 (CDF1) mice
Conditions: endpoint: mean tumor weight; dose: 12.5 mg/kg/injection; schedule: Q01DX005 (sc); vehicle: steriod suspending solution; higher = larger tumour
Can you tell me T/C for the items I'm about to list?

# T/C (molecule: CC(=O)OCC(=O)[C@@]1(O)CC[C@H]2[C@@H]3CCC4=CC(=O)[C@H](C)C[C@]4(C)[C@@]3(F)[C@@H](O)C[C@@]21C ) is 38 % of control

CC(=O)[C@@]12OC(C)(C)O[C@@H]1C[C@H]1[C@@H]3C[C@H](C)C4=CC(=O)CC[C@]4(C)[C@H]3CC[C@@]12C yielded T/C of 72 % of control

GET /value?item= CC(=O)OCC(=O)[C@@]1(O)CC[C@H]2[C@@H]3CCC4=CC(=O)[C@H](C)C[C@]4(C)[C@H]3[C@@H](O)C[C@@]21C &field=T/C returns 61 % of control

Record summary for CC1C[C@@H]2[C@H]([C@@H](O)C[C@@]3(C)[C@H]2CC[C@]3(O)C(=O)CF)[C@@]2(C)CCC(=O)C=C12 (some centres not stated) : reported T/C = 92 % of control

Given item C[C@]12C[C@H](O)[C@H]3[C@@H](CCC4=CC(=O)CC[C@@]43C)[C@@H]1CC[C@@H]2C(=O)CO , the value recorded as its T/C is 88 % of control

The recorded T/C for entry C[C@]12C=CC(=O)C=C1CC[C@H]1[C@@H]3C[C@@H](O)[C@](O)(C(=O)CO)[C@@]3(C)C[C@H](O)[C@@]12F equals 16 % of control

The molecule CC(=O)[C@H]1CC[C@H]2[C@@H]3C[C@H](C)C4=CC(=O)CC[C@]4(C)[C@H]3C(=O)C[C@]12C showed T/C equal to 89 % of control
